- System: Avena fatua
- assay.text: Post-emergence herbicidal activity against Avena fatua at 30 g a.i./ha measured after 21 days in presence of 1% Merge adjuvant
- Type: functional
measured.endpoint: Activity (%)
Your answer should be a plain number; it is taken to be in %.

API: value(readout=Activity, system=Avena fatua) for record CCc1cc(C)cc(CC)c1-c1c(OC(=O)N(CC)CC)n2n(c1=O)CCOCC2
0

API: value(readout=Activity, system=Avena fatua) for record CCc1cc(C)cc(CC)c1-c1c(OC(=O)C(C)(C)C)n2n(c1=O)CCOCC2 [PINOXADEN]
100

API: value(readout=Activity, system=Avena fatua) for record CCc1cc(C)cc(CC)c1-c1c(OC(=O)OC(C)C)n2n(c1=O)CCOCC2
90

API: value(readout=Activity, system=Avena fatua) for record CCc1cc(C)cc(CC)c1-c1c(OS(=O)(=O)N(C)C)n2n(c1=O)CCOCC2
10

API: value(readout=Activity, system=Avena fatua) for record CCCCCCCS(=O)(=O)Oc1c(-c2c(CC)cc(C)cc2CC)c(=O)n2n1CCOCC2
100

API: value(readout=Activity, system=Avena fatua) for record CCOc1c(-c2c(CC)cc(C)cc2CC)c(=O)n2n1CCOCC2
0

API: value(readout=Activity, system=Avena fatua) for record Cc1cc(C)c(C2C(=O)N3CCOCCN3C2=O)c(C)c1
60

API: value(readout=Activity, system=Avena fatua) for record CCc1cccc(CC)c1C1C(=O)N2CCCCN2C1=O
100

API: value(readout=Activity, system=Avena fatua) for record CCc1cc(C)cc(CC)c1-c1c(OCOC(=O)C(C)(C)C)n2n(c1=O)CCOCC2
100

API: value(readout=Activity, system=Avena fatua) for record CCc1cc(C)cc(CC)c1C1C(=O)N2CCOCCN2C1=O [PINOXADEN DIONE]
100

---

- System: Hordeum vulgare
- assay.text: Phytotoxicity against Hordeum vulgare (barley) at 500 g a.i./ha applied post-emergence measured after 15 days
- Assay type: organism-based
- stated.conditions: in vivo, other, 360 h
Simple rule here: Activity less than 60% is true (1), otherwise false (0).

Hello, is Activity of the following molecule strictly smaller than 60%? Cc1cc(C)c(C2C(=O)N(C)N(C)C2=O)c(C)c1
true (1)

Hello, is Activity of the following molecule strictly smaller than 60%? Cc1cc(C)c(C2C(=O)N3CCC(C)CN3C2=O)c(C)c1 (stereo unspecified)
false (0)

Hello, is Activity of the following molecule strictly smaller than 60%? Cc1cc(C)c(C2C(=O)N3CC(C)CN3C2=O)c(C)c1
true (1)

Hello, is Activity of the following molecule strictly smaller than 60%? Cc1cc(C)c(C2C(=O)N3CCCC(C)N3C2=O)c(C)c1 (stereo unspecified)
false (0)

Hello, is Activity of the following molecule strictly smaller than 60%? Cc1cc(C)c(C2C(=O)N3CCCCCN3C2=O)c(C)c1
true (1)

---

- Test system: Avena fatua
- assay.text: Post-emergence herbicidal activity against Avena fatua at 2000 g a.i./ha after 21 days
- Assay type: functional
Give measured Activity for each item. Keep answers brief.
Your answer should be a plain number; it is taken to be in %.

// lookup Activity for Cc1cc(C)c(-c2c(OC(=O)C(C)(C)C)n3n(c2=O)CC[S+]([O-])CC3)c(C)c1 (stereo unspecified)
80

// lookup Activity for Cc1cc(C)c(C2C(=O)N3CCS(=O)(=O)CCN3C2=O)c(C)c1
80

// lookup Activity for Cc1cc(C)c(-c2c(OC(=O)C(C)(C)C)n3n(c2=O)CCSCC3)c(C)c1
90

// lookup Activity for Cc1cc(C)c(C2C(=O)N3CCSCCN3C2=O)c(C)c1
90

// lookup Activity for Cc1cc(C)c(C2C(=O)N3CCN(C)CCN3C2=O)c(C)c1
10

// lookup Activity for Cc1cc(C)c(C2C(=O)N3CCOCCN3C2=O)c(C)c1
100

// lookup Activity for Cc1cc(C)c(-c2c(OC(=O)C(C)(C)C)n3n(c2=O)CCS(=O)(=O)CC3)c(C)c1
80

// lookup Activity for Cc1cc(C)c(-c2c(OC(=O)C(C)(C)C)n3n(c2=O)CCOCC3)c(C)c1
100

// lookup Activity for Cc1cc(C)c(C2C(=O)N3CCCCCN3C2=O)c(C)c1
90

// lookup Activity for Cc1cc(C)c(-c2c(OC(=O)C(C)(C)C)n3n(c2=O)CCCCC3)c(C)c1
90

// lookup Activity for Cc1cc(C)c(C2C(=O)N3CC[S+]([O-])CCN3C2=O)c(C)c1
80

---

Give measured Activity for each item. Keep answers brief.
- Tested on: Triticum aestivum
- assay.text: Phytotoxicity against Triticum aestivum (wheat) at 30 g a.i./ha applied post-emergence measured after 21 days in presence of 1% Merge adjuvant
- Type: organism-based
- stated.conditions: in vivo, other, 504 h
Your answer should be a plain number; it is taken to be in %.

// lookup Activity for CCc1cccc(CC)c1C1C(=O)N2CCCCN2C1=O
80

// lookup Activity for CCc1cc(C)cc(CC)c1-c1c(OC(=O)N(CC)CC)n2n(c1=O)CCOCC2
0

// lookup Activity for CCc1cc(C)cc(CC)c1-c1c(OC(=O)C(C)(C)C)n2n(c1=O)CCOCC2
10

// lookup Activity for Cc1cc(C)c(C2C(=O)N3CCOCCN3C2=O)c(C)c1
0

// lookup Activity for CCc1cc(C)cc(CC)c1-c1c(OC(=O)OC(C)C)n2n(c1=O)CCOCC2
0

---

Give measured Activity for each item. Keep answers brief.
- Tested on: Hordeum vulgare
- assay.text: Phytotoxicity against Hordeum vulgare (barley) at 500 g a.i./ha applied post-emergence measured after 15 days
- Assay type: organism-based
- stated.conditions: in vivo, other, 360 h
Your answer should be a plain number; it is taken to be in %.

// lookup Activity for Cc1cc(C)c(C2C(=O)N3C[C@H]4CCCC[C@H]4CN3C2=O)c(C)c1 (some centres not stated)
60

// lookup Activity for Cc1cc(C)c(C2C(=O)N3CCCCN3C2=O)c(C)c1
90

// lookup Activity for Cc1cc(C)c(C2C(=O)N3C[C@H]4CCCC[C@@H]4CN3C2=O)c(C)c1
50

// lookup Activity for Cc1cc(C)c(C2C(=O)N3CC(C)(C)CN3C2=O)c(C)c1
90

// lookup Activity for COC1CN2C(=O)C(c3c(C)cc(C)cc3C)C(=O)N2C1
0

// lookup Activity for Cc1cc(C)c(C2C(=O)N3CCCN3C2=O)c(C)c1
40

// lookup Activity for Cc1cc(C)c(C2C(=O)N3CC(C)C(C)CN3C2=O)c(C)c1 (configuration not stated)
60

---

- assay.text: Half life of hydrolysis at pH 7 at 50 degC
- Type: ADME
- stated.conditions: buffer
measured.endpoint: half-life (h)
Your answer should be a plain number; it is taken to be in h.

// lookup half-life for CCCCCCCS(=O)(=O)Oc1c(-c2c(CC)cc(C)cc2CC)c(=O)n2n1CCOCC2
3

// lookup half-life for CCc1cc(C)cc(CC)c1-c1c(OC(=O)C(C)(C)C)n2n(c1=O)CCOCC2
20.6

---

- Test system: Triticum aestivum
- assay.text: Phytotoxicity against Triticum aestivum (wheat) at 30 g a.i./ha applied post-emergence measured after 21 days in presence of 1% Merge adjuvant
- Assay type: organism-based
- stated.conditions: in vivo, other, 504 h
measured.endpoint: Activity (%)
Your answer should be a plain number; it is taken to be in %.

// lookup Activity for CCc1cc(C)cc(CC)c1C1C(=O)N2CCOCCN2C1=O
10

// lookup Activity for CCOc1c(-c2c(CC)cc(C)cc2CC)c(=O)n2n1CCOCC2
0

// lookup Activity for CCc1cc(C)cc(CC)c1-c1c(OS(=O)(=O)N(C)C)n2n(c1=O)CCOCC2
0

// lookup Activity for CCCCCCCS(=O)(=O)Oc1c(-c2c(CC)cc(C)cc2CC)c(=O)n2n1CCOCC2
20

// lookup Activity for CCc1cc(C)cc(CC)c1-c1c(OCOC(=O)C(C)(C)C)n2n(c1=O)CCOCC2
10

---

- System: Triticum aestivum
- assay.text: Phytotoxicity against Triticum aestivum (wheat) at 500 g a.i./ha applied post-emergence measured after 15 days
- Assay type: organism-based
- stated.conditions: in vivo, other, 360 h
Give measured Activity for each item. Keep answers brief.

// lookup Activity for Cc1cc(C)c(C2C(=O)N3CC(C)C(C)CN3C2=O)c(C)c1 (stereo not drawn)
20%

// lookup Activity for Cc1cc(C)c(C2C(=O)N3CCCCCN3C2=O)c(C)c1
20%

// lookup Activity for Cc1cc(C)c(C2C(=O)N3C[C@H]4CCCC[C@H]4CN3C2=O)c(C)c1 (stereo partly drawn)
50%

// lookup Activity for Cc1cc(C)c(C2C(=O)N3C[C@H]4CCCC[C@@H]4CN3C2=O)c(C)c1
50%

// lookup Activity for Cc1cc(C)c(C2C(=O)N3CCCCN3C2=O)c(C)c1
60%

// lookup Activity for Cc1cc(C)c(C2C(=O)N3CCCC(C)N3C2=O)c(C)c1 (stereo not drawn)
20%

// lookup Activity for Cc1cc(C)c(C2C(=O)N3CCC(C)CN3C2=O)c(C)c1 (stereo not drawn)
50%

// lookup Activity for Cc1cc(C)c(C2C(=O)N3CCC(C)CCN3C2=O)c(C)c1
20%

// lookup Activity for Cc1cc(C)c(C2C(=O)N(C)N(C)C2=O)c(C)c1
10%

// lookup Activity for Cc1cc(C)c(C2C(=O)N3CCCN3C2=O)c(C)c1
0%

// lookup Activity for Cc1cc(C)c(C2C(=O)N3CC(C)CN3C2=O)c(C)c1
40%

// lookup Activity for COC1CN2C(=O)C(c3c(C)cc(C)cc3C)C(=O)N2C1
0%

// lookup Activity for Cc1cc(C)c(C2C(=O)N3CC(C)(C)CN3C2=O)c(C)c1
60%
